Cited source for all entries: ChEMBL document CHEMBL3352487

Test: AUC (0 to infinity) in Sprague-Dawley rat at 5 mg/kg, iv
Type: ADME, organism-based
Design: time infinity, dose 5 mg/kg, route intravenous
Details: plasma
propertyMeasured: log10 AUC(0-inf) (log10 of the value in ng·h/mL)
Log scale reminder: AUC(0-inf) in ng·h/mL, then log10 taken.

CCCC[C@H](CN(O)C=O)C(=O)N1CC=C[C@H]1C(=O)Nc1ncc(C)s1; 3.69
CCCC[C@H](CN(O)C=O)C(=O)N1CC=C[C@H]1C(=O)Nc1ccc(F)c[n+]1[O-]; 3.29
C=C1C[C@@H](C(=O)Nc2ncc(C)s2)N(C(=O)[C@H](CCCC)CN(O)C=O)C1; 4.30
Cc1cnc(NC(=O)[C@@H]2C=CCN2C(=O)[C@H](CC2CCCC2)CN(O)C=O)s1; 3.67

Now for the compound whose log10 AUC(0-inf) we want.
Asked: Provide one value: measured log10 AUC(0-inf) of O=CN(O)C[C@@H](CC1CCCC1)C(=O)N1CC=C[C@H]1C(=O)Nc1ccc(F)c[n+]1[O-]
Given back: 3.21
